target: intracellular HASPIN (Homo sapiens (Human), UniProt Q8TF76); test: Endogenous phosphoH3 inhibition in SW620 cells growing in 10% FBS; type: cell-based; settings: quantitative, read-out: SW620 pH3(T3)
Sequence (Q8TF76 whole entry): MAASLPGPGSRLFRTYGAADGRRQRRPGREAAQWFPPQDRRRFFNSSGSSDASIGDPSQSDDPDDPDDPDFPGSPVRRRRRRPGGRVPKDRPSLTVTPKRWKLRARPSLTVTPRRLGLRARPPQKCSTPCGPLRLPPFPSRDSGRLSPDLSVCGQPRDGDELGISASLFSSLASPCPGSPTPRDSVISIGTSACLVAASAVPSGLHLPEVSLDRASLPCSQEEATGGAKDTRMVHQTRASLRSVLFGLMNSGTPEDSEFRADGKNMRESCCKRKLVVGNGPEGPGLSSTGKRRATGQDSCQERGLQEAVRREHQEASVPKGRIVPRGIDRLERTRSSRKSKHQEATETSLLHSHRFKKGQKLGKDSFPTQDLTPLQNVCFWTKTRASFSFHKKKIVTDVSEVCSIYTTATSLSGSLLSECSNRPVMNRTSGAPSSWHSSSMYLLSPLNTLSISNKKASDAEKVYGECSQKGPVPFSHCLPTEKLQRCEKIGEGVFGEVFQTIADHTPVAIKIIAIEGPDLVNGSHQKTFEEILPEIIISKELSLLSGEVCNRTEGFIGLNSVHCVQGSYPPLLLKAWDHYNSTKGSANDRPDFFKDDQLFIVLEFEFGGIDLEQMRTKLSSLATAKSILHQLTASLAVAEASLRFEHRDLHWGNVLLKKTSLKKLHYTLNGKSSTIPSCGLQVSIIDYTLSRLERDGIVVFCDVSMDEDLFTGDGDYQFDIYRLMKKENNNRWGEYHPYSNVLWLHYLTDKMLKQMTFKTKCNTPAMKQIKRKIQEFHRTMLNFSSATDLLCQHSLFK
recorded metric: EC50 (nM)
Only the number, expressed in nM, is required.

## Input Find the recorded EC50 belonging to CCn1c(C(N)=O)cc2c1-c1ccncc1OC2(C)C and report it.
## Output 1.6

----------
test system: SW620 cells; assay: Colony formation assay; format: cell-based, human; conditions: Homo sapiens, SW-620, 264 h; SW620 cells treated 11 days; read-out: mean EC50, colony forming assay
Overview of reported pEC50 across a group of molecules:
Here pEC50 is given on a logarithmic scale as minus log10 of the concentration in mol/L.

molecule	recorded metric	test result
CCn1c(C(N)=O)cc2c1-c1ccncc1OC2(C)C [Example 43]	pEC50	7.29

// next entry
## Input Name the recorded pEC50 for COc1ccccc1-c1c2c(n(CCF)c1C(N)=O)-c1ccncc1OC2(C)C [Example 73] .
## Output 5.27

----------
target: intracellular CDK8 (Homo sapiens (Human)); test: Cellular CDK8 inhibition assay, western blot P-STAT1 (S727) in IFN-γ treated SW620 cells; type: cell-based; details: SW620, IFNγ treated, quantitative; read-out: SW620 P-STAT1(S727) w IFNγ
Sequence (P49336 whole entry): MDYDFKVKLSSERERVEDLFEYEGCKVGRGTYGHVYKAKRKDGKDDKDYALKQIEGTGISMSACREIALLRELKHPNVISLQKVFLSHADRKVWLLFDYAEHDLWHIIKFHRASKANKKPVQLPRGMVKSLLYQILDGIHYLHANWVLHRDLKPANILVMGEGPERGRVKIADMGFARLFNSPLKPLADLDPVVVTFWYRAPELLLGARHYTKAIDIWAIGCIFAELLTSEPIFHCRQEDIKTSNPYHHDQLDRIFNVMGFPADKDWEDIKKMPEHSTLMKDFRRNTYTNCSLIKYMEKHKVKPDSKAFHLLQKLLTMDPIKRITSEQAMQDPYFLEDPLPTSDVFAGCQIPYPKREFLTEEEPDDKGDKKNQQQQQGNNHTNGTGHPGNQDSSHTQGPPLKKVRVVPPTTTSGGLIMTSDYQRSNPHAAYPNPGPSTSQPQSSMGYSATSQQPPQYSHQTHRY
Sequence (P24863 whole entry partner): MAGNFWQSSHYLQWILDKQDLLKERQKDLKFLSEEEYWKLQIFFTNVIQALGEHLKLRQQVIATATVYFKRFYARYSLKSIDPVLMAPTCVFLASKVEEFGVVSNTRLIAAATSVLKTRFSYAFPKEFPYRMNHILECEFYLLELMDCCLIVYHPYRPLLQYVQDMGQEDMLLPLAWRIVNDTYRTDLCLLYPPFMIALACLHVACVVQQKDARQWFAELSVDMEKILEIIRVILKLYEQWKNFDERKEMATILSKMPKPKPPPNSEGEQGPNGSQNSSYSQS
Sequence (Q93074 whole entry partner): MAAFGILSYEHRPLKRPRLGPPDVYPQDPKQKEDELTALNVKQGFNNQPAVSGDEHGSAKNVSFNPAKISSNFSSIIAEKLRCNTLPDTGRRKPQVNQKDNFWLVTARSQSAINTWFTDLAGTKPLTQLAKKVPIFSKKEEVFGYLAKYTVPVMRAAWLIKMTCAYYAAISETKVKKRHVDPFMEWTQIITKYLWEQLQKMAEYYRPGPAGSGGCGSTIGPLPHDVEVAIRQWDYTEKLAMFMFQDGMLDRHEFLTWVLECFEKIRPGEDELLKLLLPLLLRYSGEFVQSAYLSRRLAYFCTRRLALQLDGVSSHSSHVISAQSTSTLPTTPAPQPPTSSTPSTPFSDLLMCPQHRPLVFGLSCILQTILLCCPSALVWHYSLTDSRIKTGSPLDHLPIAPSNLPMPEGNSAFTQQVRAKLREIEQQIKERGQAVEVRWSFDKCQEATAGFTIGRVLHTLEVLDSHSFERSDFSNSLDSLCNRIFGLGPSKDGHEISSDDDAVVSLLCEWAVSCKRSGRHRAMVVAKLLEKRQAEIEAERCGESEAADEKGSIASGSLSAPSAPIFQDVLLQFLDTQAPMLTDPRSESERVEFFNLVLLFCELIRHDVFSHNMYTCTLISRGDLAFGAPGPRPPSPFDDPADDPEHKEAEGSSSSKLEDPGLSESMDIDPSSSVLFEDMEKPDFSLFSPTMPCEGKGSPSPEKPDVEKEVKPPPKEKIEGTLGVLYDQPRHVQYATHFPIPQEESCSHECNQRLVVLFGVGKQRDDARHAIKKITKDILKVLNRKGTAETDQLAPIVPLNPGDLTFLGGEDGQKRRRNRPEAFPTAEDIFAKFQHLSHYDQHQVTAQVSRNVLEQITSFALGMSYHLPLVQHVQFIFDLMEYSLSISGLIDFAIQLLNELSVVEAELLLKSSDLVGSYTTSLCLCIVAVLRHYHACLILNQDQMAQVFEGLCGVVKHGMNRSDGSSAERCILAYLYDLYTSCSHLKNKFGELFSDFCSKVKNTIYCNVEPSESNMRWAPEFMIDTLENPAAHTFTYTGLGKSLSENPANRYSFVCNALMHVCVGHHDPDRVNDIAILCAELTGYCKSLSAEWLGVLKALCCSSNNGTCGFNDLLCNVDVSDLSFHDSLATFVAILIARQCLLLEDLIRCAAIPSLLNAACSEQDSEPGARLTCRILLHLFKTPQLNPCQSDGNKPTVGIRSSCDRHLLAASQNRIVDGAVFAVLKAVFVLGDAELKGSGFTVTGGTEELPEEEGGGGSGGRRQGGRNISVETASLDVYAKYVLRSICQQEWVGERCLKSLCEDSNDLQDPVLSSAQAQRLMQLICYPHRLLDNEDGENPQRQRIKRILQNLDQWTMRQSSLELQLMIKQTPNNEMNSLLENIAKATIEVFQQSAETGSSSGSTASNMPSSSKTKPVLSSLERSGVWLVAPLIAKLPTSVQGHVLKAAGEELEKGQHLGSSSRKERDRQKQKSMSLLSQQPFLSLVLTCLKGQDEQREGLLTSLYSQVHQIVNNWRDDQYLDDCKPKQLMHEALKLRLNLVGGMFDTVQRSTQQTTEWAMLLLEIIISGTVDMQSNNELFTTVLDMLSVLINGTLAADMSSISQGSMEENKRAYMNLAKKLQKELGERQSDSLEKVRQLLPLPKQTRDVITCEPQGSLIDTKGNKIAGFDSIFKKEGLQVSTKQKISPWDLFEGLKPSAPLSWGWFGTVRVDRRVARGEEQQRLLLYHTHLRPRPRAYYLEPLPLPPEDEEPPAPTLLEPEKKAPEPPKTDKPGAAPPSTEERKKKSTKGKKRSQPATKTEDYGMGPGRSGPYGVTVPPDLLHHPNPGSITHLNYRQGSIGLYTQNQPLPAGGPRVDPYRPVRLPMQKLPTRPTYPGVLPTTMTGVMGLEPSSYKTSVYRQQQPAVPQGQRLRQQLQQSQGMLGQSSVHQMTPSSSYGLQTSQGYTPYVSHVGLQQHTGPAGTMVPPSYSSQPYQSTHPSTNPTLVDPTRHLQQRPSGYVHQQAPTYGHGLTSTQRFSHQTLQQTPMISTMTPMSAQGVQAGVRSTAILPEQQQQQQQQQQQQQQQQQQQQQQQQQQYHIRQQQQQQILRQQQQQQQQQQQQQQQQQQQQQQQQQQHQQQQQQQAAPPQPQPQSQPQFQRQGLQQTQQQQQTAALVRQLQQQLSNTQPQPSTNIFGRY
recorded metric: EC50 (nM)
Record the value in nM, omitting the unit from your answer.

## Input Observed EC50 on intracellular CDK8 (Homo sapiens (Human)) for CCn1c(C(N)=O)cc2c1-c1ccncc1OC2(C)C , please.
## Output 0.064

----------
biological target: CDK8/Cyclin C (Homo sapiens (Human), UniProt P49336); assay: CDK8/Cyclin C binding assay (LanthaScreen Eu-Kinase Binding Assay); conditions: binding assay
Sequence (P49336 whole entry): as the sequence (P49336 whole entry) above
Sequence (P24863 whole entry partner): as the sequence (P24863 whole entry partner) above
Some compounds, each annotated with its measured pIC50.
Just so you know, pIC50 here is -log10 of the concentration in molar units; reply with that number alone.

compound	pIC50
CC1(C)Oc2c(ccnc2Cl)-c2[nH]c(C(=O)O)cc21	5.20

## Input Requested read-out: pIC50. Entry: CCn1c(C(N)=O)cc2c1-c1ccncc1OC21CCC1
## Output 9.72

## Input Would you mind telling me what pIC50 value was observed for COCCNC(=O)c1cc2c([nH]1)-c1ccncc1OC2(C)C ?
## Output 5.83

## Input I have this compound here, C=Cc1c(C(N)=O)[nH]c2c1C(C)(C)Oc1cnccc1-2 , and I need its recorded pIC50.
## Output 7.91

## Input If you can, please state the reported pIC50 value of COc1ccccc1-c1c(C(N)=O)[nH]c2c1C(C)(C)Oc1cnccc1-2 .
## Output 7.26

## Input Which value of pIC50 has been reported for COc1ccccc1-c1c2c(n(CCF)c1C(=O)NCCF)-c1ccncc1OC2(C)C in the records?
## Output 6.32

## Input Using the record for CC1(C)Oc2cnccc2-c2[nH]c(C(=O)NCc3ccccc3)cc21 , report its pIC50.
## Output 6.47

## Input Reported pIC50 for CC1(C)Oc2cnccc2-c2[nH]c(C(=O)NC3CCNCC3)cc21 : what is it?
## Output 5.45

## Input Look up pIC50: NC(=O)c1cc2c([nH]1)-c1ccncc1OC21CCOCC1
## Output 7.26

## Input Please give the measured pIC50 for this compound: NC(=O)c1cc2c([nH]1)-c1ccncc1OC21CCN(CCCC(F)(F)F)CC1
## Output 6.05

## Input Which measured pIC50 value corresponds to CC1(C)Oc2cncc(Cl)c2-c2[nH]c(C(N)=O)cc21 ?
## Output 8.68
